- Tested on: SW1271 complex spheroids with HUVEC/MSC, growth, % test/control
- experiment.summary: Anticancer human tumor SW1271 cell line growth inhibition [AhR];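 note: spheroids exposed to agents for 7 days before readout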
- particulars: second compound 1 µM; first compound 10 µM; hits give low values
parameter.measured: viability, T/C (%)
Reply with just the number (in %).

In the examples that follow, each entry is paired with its recorded viability, T/C.
[[record]]
molecule = "Nc1ccccc1NC(=O)c1ccc(CNC(=O)OCc2cccnc2)cc1 + Cc1ccccc1N=Nc1ccc(NC(=O)c2ccnn2C)c(C)c1"
units_label = "%"
val = 19.9

[[record]]
molecule = "COc1cc(C2c3cc4c(cc3C(OC3OC5COC(C)OC5C(O)C3O)C3COC(=O)C23)OCO4)cc(OC)c1O (stereo unspecified) + CC(CO)NC(=O)c1cc(-c2ccc(Cl)cc2)nn(-c2cnn(C)c2)c1=O"
units_label = "%"
val = 47.7


Incoming: What viability, T/C value was documented for this molecule, NS(=O)(=O)OCC1CC(n2ccc3c(NC4CCc5ccccc54)ncnc32)CC1O (stereo unspecified) + Cc1ccccc1N=Nc1ccc(NC(=O)c2ccnn2C)c(C)c1 ?
Outgoing: 78.5

Incoming: What viability, T/C value was documented for this molecule, Nc1ccn(C2OC(CO)C(O)C2(F)F)c(=O)n1 (stereo unspecified) + Cc1cncc(-c2nc(NCCc3c[nH]c4ccccc34)c3ncn(C(C)C)c3n2)c1 ?
Outgoing: 58.4

Incoming: What viability, T/C value was documented for this molecule, Nc1ccccc1NC(=O)c1ccc(CNC(=O)OCc2cccnc2)cc1 + Cc1cncc(-c2nc(NCCc3c[nH]c4ccccc34)c3ncn(C(C)C)c3n2)c1 ?
Outgoing: 17.1

Incoming: What viability, T/C value was documented for this molecule, COc1cccc2c1C(=O)c1c(O)c3c(c(O)c1C2=O)CC(O)(C(=O)CO)CC3OC1CC(N)C(O)C(C)O1 (stereo unspecified) + CC(CO)NC(=O)c1cc(-c2ccc(Cl)cc2)nn(-c2cnn(C)c2)c1=O ?
Outgoing: 2.5
